# Test system: 186277-243-T-J2-PDC complex spheroid growth;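 also: luminescent signal used as a stand-in for viable cell amount; spheroids exposed to compounds for seven days before the viability read; 100% = DMSO vehicle control wells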
# Test name: Anticancer human tumor 186277-243-T-J2-PDC patient-derived colon adenocarcinoma cell line growth inhibition [AhR]
# Reported conditions: second compound 1 µM; first compound 0.001 µM; hits give low values
# Description: Multicellular complex tumor spheroid response to aryl hydrocarbon receptor antagonists in combination with a variety of drugs and investigational agents in selected tumor cell lines […] Compounds. […] If the clinical Cmax for an agent had not been determined, the highest concentration tested was 10 microM (Table 1). […]
Listed below: viability, T/C values for each entry.

Compound: CC[C@@]1(O)C(=O)OCc2c1cc1n(c2=O)Cc2cc3c(CN(C)C)c(O)ccc3nc2-1 + Cc1cncc(-c2nc(NCCc3c[nH]c4ccccc34)c3ncn(C(C)C)c3n2)c1
viability, T/C / %: 108
--
Compound: Cn1ncnc1C1c2n[nH]c(=O)c3cc(F)cc(c23)NC1c1ccc(F)cc1 (stereo not drawn) + Cc1ccccc1N=Nc1ccc(NC(=O)c2ccnn2C)c(C)c1
viability, T/C / %: 98.3
--
Compound: CC[C@@]1(O)C(=O)OCc2c1cc1n(c2=O)Cc2cc3c(CN(C)C)c(O)ccc3nc2-1 + Cc1ccccc1N=Nc1ccc(NC(=O)c2ccnn2C)c(C)c1
viability, T/C / %: 103
